tgt: αvβ3 integrin (Homo sapiens, UniProt P05106+P06756)
Sequence (P06756 31-889 limits assumed): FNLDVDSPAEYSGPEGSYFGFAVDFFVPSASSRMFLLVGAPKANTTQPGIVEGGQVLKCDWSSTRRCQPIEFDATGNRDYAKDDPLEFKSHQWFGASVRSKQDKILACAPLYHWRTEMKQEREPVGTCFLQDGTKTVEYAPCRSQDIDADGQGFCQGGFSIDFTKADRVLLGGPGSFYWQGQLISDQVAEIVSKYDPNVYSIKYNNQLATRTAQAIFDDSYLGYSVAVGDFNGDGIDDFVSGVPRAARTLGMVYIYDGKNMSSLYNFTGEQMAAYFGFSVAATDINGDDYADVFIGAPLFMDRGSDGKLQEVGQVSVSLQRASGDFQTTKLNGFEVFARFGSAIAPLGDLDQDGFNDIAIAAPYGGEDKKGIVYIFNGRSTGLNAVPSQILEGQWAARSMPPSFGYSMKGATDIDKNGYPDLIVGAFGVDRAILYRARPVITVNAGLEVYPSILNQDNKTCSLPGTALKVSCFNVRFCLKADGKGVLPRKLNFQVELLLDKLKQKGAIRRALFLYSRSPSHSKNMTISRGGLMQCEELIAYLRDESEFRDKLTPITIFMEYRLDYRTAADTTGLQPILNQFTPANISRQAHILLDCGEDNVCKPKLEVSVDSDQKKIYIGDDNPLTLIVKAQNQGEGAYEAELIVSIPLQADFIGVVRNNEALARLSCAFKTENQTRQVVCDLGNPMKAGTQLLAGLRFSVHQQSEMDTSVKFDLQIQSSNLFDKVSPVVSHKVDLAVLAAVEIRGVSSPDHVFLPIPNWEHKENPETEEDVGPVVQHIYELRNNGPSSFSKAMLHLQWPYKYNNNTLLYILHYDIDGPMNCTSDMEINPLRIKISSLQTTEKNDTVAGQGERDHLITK
Sequence (P06756 891-1048 partner limits assumed): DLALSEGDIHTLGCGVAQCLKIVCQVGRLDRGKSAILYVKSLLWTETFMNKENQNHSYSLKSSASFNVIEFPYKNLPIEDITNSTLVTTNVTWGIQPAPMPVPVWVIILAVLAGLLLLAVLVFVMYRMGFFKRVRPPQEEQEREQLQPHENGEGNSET
Sequence (P05106 27-788): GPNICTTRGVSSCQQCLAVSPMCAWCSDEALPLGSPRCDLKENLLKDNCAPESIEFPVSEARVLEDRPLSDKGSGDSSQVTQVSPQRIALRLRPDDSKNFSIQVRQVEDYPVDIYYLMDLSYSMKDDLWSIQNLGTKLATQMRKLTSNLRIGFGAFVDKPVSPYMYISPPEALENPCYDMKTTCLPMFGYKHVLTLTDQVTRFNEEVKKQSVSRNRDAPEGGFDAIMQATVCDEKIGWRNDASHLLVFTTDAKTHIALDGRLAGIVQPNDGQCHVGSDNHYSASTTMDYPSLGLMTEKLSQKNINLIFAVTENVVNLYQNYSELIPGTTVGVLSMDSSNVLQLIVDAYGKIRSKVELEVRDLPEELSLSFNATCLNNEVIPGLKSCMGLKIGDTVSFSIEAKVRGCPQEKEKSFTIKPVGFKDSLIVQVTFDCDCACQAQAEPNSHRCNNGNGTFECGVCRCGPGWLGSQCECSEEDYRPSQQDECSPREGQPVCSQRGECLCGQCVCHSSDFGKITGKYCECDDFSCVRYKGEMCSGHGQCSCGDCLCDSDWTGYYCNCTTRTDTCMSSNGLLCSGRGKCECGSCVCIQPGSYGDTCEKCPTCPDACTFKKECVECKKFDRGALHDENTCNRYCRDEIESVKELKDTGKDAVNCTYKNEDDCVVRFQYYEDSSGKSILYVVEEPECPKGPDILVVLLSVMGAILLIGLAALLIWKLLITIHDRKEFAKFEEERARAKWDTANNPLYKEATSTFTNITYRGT
protocolDetails: Inhibition of biotinylated LXW7 binding to αvβ3-K562 cells (flow cytometry)
Design: expressed in transfected cells; host or cells: K562 (gift of Dr. Yoshikazu Takada, UC Davis)
conditionParameters: LXW9-92: inhibiting the binding of biotinylated LXW7 against αvβ3-K562 cells; class symbols
Bridge positions count the residues as written; N and C are the ends. Square brackets hold non-standard residues; d marks the D form. Peptide text beside a SMILES is read from it. * marks the point of attachment. Hydrocinnamoyl = O=C(CCc1ccccc1)*
valueType: IC50

{"columns": ["molecule", "IC50"],
 "data": [
  ["N=C(N)NCCC[C@@H]1NC(=O)CNC(=O)[C@H](N)CSSC[C@@H](C(N)=O)NC(=O)[C@@H](CC(=O)O)NC(=O)[C@@H](CO)NC(=O)[C@H](CC(=O)O)NC(=O)CNC1=O [LXW62, cGRGDsdC] (H-[dC]GRGD[dS][dD]C-NH2; disulfide 1-8)", "> 10 µM"]
]}

[Q] Please list IC50 recorded for the molecule CC(C)[C@H]1NC(=O)[C@@H](CC(=O)O)NC(=O)[C@H](CC(=O)O)NC(=O)CNC(=O)[C@H](CCCNC(=N)N)NC(=O)CNC(=O)[C@H](NC(=O)CCc2ccccc2)CSSC[C@H](C(N)=O)NC1=O [LXW80, 3-phenyl propionyl-cGRGDdvc] (Hydrocinnamoyl-[dC]GRGD[dD][dV][dC]-NH2; disulfide 1-8)
[A] < 1 µM
